System: human Factor XI mRNA
procedure-details: Dose-dependent inhibition in HepG2 cells, electroporation (Example 5)
Assay type: cell-based
details: 2500 nM, approx. 16 h, relative to untreated control cells
Reported percent inhibition of human Factor XI mRNA values follow for various substances
Entry rule: numbers only, all in %.

417003 (antisense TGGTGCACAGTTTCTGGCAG; 2-13-5 gapmer, wing sugar chemistry not given here, further chemistry not given here) [compound 417003]	86
416850 (antisense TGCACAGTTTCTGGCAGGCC; 5-10-5 gapmer, wing sugar chemistry not given here, further chemistry not given here) [compound 416850]	87
416864 (antisense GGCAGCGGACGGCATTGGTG; 5-10-5 gapmer, wing sugar chemistry not given here, further chemistry not given here) [compound 416864]	84

**Q:** Quick check: percent inhibition of human Factor XI mRNA of 416925 (antisense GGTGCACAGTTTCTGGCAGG; 3-14-3 chimeric gapmer, wing sugar chemistry not given here, further chemistry not given here) [compound 416925] ?
**A:** 88

**Q:** Same for 416825 (antisense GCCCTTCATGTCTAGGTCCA; 5-10-5 gapmer, wing sugar chemistry not given here, further chemistry not given here) [compound 416825]
**A:** 91

* * *

System: human Factor XI mRNA
procedure-details: Dose-dependent inhibition and IC50 in HepG2 cells, electroporation (Example 15)
Type: cell-based
details: electroporation, 3,333.33 nM
In the oligonucleotide strings, read from the 5' end, every base follows the letter of its sugar. An asterisk marks phosphorothioate; unmarked linkages are phosphodiester. Other units and linkages are bracketed, terminal groups are in braces. A string of capitals states the bases alone. e = 2'-O-(2-methoxyethyl) (MOE); [5mC] = 5-methylcytosine; d = 2'-deoxy (DNA)
property-measured: percent inhibition of Factor XI mRNA (%)
Entry rule: numbers only, all in %.

**Q:** Quick check: percent inhibition of Factor XI mRNA of 445532 (antisense e[5mC]*eG*eG*e[5mC]*eA*dT*dT*dG*dG*dT*dG*d[5mC]*dA*e[5mC]*eA*eG*eT*eT) [compound 445532] ?
**A:** 60

**Q:** Same for 445522 (antisense eG*e[5mC]*eA*e[5mC]*eA*dG*dT*dT*dT*d[5mC]*dT*dG*dG*e[5mC]*eA*eG*eG*e[5mC]) [compound 445522]
**A:** 63

**Q:** Same for 416861 (antisense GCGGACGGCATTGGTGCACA; 5-10-5 gapmer, wing sugar chemistry not given here, further chemistry not given here) [compound 416861]
**A:** 66

* * *

Tested on: Factor XI protein
procedure-details: Cynomolgus monkeys: plasma Factor XI protein ELISA (Example 29)
Format: in vivo
details: escalating doses 5, 10, 25 mg/kg s.c., day 64
In the oligonucleotide strings, read from the 5' end, every base follows the letter of its sugar. An asterisk marks phosphorothioate; unmarked linkages are phosphodiester. Other units and linkages are bracketed, terminal groups are in braces. A string of capitals states the bases alone. e = 2'-O-(2-methoxyethyl) (MOE); [5mC] = 5-methylcytosine; d = 2'-deoxy (DNA)
property-measured: Inhibition of Factor XI protein relative to the PBS control

Some solved cases for reference:
ISIS 416838: gapmer of Table 6 (antisense eG*e[5mC]*eA*eA*e[5mC]*d[5mC]*dG*dG*dG*dA*dT*dG*dA*dT*dG*eA*eG*eT*eG*e[5mC])	11%
ISIS 416858: gapmer of Table 8 (antisense eA*e[5mC]*eG*eG*e[5mC]*dA*dT*dT*dG*dG*dT*dG*d[5mC]*dA*d[5mC]*eA*eG*eT*eT*eT)	68%
ISIS 417002: gapmer of Table 8 (antisense eG*eG*dT*dG*d[5mC]*dA*d[5mC]*dA*dG*dT*dT*dT*d[5mC]*dT*dG*eG*e[5mC]*eA*eG*eG)	26%
ISIS 416850: gapmer of Table 8 (antisense eT*eG*e[5mC]*eA*e[5mC]*dA*dG*dT*dT*dT*d[5mC]*dT*dG*dG*d[5mC]*eA*eG*eG*e[5mC]*e[5mC])	55%

With those in mind, consider the next substance.
**Q:** Quick check: Inhibition of Factor XI protein relative to the PBS control of ISIS 416864: gapmer of Table 8 (antisense eG*eG*e[5mC]*eA*eG*d[5mC]*dG*dG*dA*d[5mC]*dG*dG*d[5mC]*dA*dT*eT*eG*eG*eT*eG) ?
**A:** 5%
